Assay: GAL4-VP16 reporter modulators, confirmation, counter-screen for NR2E3 agonist project, cell-based, luminescence, CHO-S, high throughput (AID 624379);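 further: luciferase from a UAS reporter driven by GAL4-VP16 transactivation; 0% = DMSO with VP16-transfected cells and 100% = DMSO with cells lacking VP16; higher means less reporter light so more repression of VP16 activity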
Conditions: CHO-S GAL4-VP16 luciferase reporter, at 3.98 µM
The other results are listed elsewhere or left out. Active and inactive are the calls of the source.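 How the source made its calls: active means mean inhibition above a cutoff equal to the average over all tested compounds plus one standard deviation (cut at about 70% in these data); inactive means the rest.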
The categories you may choose from are 1 = active, 0 = inactive

Solved cases below.
{"compound": "Cc1ccc(S(=O)(=O)N2[C@@H](c3ccc(Br)cc3)C(C(=O)O)=C[C@H]2CC2CCCC2)cc1", "discrete.label": 0}
{"compound": "Oc1ccc(Br)cc1/C=N/Nc1ccccn1", "discrete.label": 0}
{"compound": "OC[C@@H]1CN(Cc2ccc(-c3ccccc3)cc2)C[C@H](n2cnc3c(NC4CCCC4)ncnc32)O1", "discrete.label": 1}
{"compound": "S=C(NCC1CCCO1)N1CCN(c2ccc(Cl)c(Cl)c2)CC1 (stereo not given)", "discrete.label": 1}

With those in mind, consider the next compound.
Q) Which outcome was entered for the compound Cc1ccsc1C(=O)OCC(=O)c1cc(C)n(CC2CCCO2)c1C (stereo not given) in this test?
A) 0

---

System: transactivating tegument protein VP16 (Human herpesvirus 1)
Test: VP16 transactivation reporter inhibitors, counter-screen for SRC2 inhibitor project, cell-based, luminescence, single concentration (AID 652007)
Conditions: cell-based VP16 transactivation luciferase reporter, at 8.9 µM, hits give high values
reported.metric: inhibition (%)
Answers are plain numbers, in %.

Here is how some compounds turned out for inhibition.
{"compound": "Cc1ccc2occ(/C=N/NC(=O)[C@@H](N)Cc3ccccc3)c(=O)c2c1", "inhibition [%]": 4.17}
{"compound": "CCOC(=O)C1CCN(S(=O)(=O)c2ccc(NC(=O)OC)cc2)CC1", "inhibition [%]": -1.65}
{"compound": "Cc1[nH]c(=O)c(C(=O)/C=C/c2ccccc2)c2c1CCCC2", "inhibition [%]": 50.1}
{"compound": "CN1CCN(c2ccc(NC(=O)c3cc(S(N)(=O)=O)ccc3N3CCOCC3)cc2)CC1", "inhibition [%]": -1.08}
{"compound": "COc1ccc(C(=O)N/N=C\\c2coc3ccc(Cl)cc3c2=O)cc1", "inhibition [%]": 3.52}
{"compound": "Cc1ccc2nc(-c3ccc4c(c3)OCCO4)cn2c1", "inhibition [%]": 58.9}
{"compound": "O=c1c2ccccc2oc2cc(C#CC3(O)CCCCC3)ccc12", "inhibition [%]": -4.85}
{"compound": "CC(C)COc1ccc(C/C(N)=N/n2cnnc2)cc1", "inhibition [%]": 22.1}
{"compound": "COc1ccc(C(=O)O/N=C(\\N)c2ccccn2)cc1", "inhibition [%]": -70.2}
{"compound": "CN1CCN(c2ccc(NC(=O)N3CCc4ccccc43)cc2)CC1", "inhibition [%]": -18.3}

Give one value of inhibition per listed compound.
1. COc1ccc(-c2cc(-c3nc4ccccn4c3NCc3ccccc3)ccc2OC)cc1
2. CCN(CC)S(=O)(=O)c1ccc(Cl)c(NC(=O)COc2ccc(OC)cc2[N+](=O)[O-])c1
3. COc1ccc(-n2c(C)c([N+](=O)[O-])c3ccc(O)c(CN4CCCCC4)c32)cc1
4. CCOc1ccc(-n2c(C)nc3cc(C(=O)NCC4CCCO4)ccc32)cc1 (centres undefined)
5. O=C(CCl)N(c1ccccc1)c1ccccc1

A)
[96.8, -24.3, 4.57, -16.6, 9.78]

Give one value of inhibition per listed compound.
1. CCOC(=O)c1ccc(NC(=O)Cn2cnc3cc(C)c(C)cc32)cc1
2. O=[N+]([O-])c1nn(-c2ccc3c(c2)OCCO3)n(O)c1=Nc1ccccc1
3. CC(=O)Nc1cccc(NC(=O)CSc2nc(C3CC3)nc3ccccc23)c1

A)
[19.5, 35.2, -2.73]

Give one value of inhibition per listed compound.
1. CCc1cc2c(Sc3nc4ccccc4s3)ncnc2s1
2. COC(=O)c1nn(-c2ccc3c(c2)CCN3C(C)=O)cc1O
3. c1ccc(C2=Nn3c(nnc3-c3ccncc3)SC2)cc1
4. CCS(=O)(=O)c1ncc(Cl)c(C(=O)Nc2ccc(S(=O)(=O)N3CCC(C)CC3)cc2)n1
5. CCc1ccc(CCNC(=O)OCCCN2CCC3(CCC(c4ccccc4)CC3)C2=O)cc1 (centres undefined)
6. CC(C)CCCCCCCCCCCCC(=O)NCC(=O)NC1C(C)OC(Nc2ncnc3nc[nH]c23)C(O)C1O (centres undefined)

A)
[36.6, -21.8, -2.29, 89.9, 5.9, 76.9]

Give one value of inhibition per listed compound.
1. CC(C)CC(NC(=O)c1ccco1)C(=O)Nc1ccc2c(c1)OCCO2 (centres undefined)
2. O=C(c1cc2sccc2n1Cc1ccc(F)cc1)N1CCN(c2nc3ccccc3s2)CC1
3. N#Cc1ccccc1COc1ccc(/C=C/C(=O)O)cc1

A)
1. 10.6
2. 6.21
3. 57.9

Give one value of inhibition per listed compound.
1. CCCCc1ccc(N/C(N)=N/c2nc(C)cc(C)n2)cc1
2. CC(C)(C)c1ccc(Oc2ccc(N)cc2)cc1
3. Nc1ncnc2c(C3OC(CO)C(O)C3O)scc12 (centres undefined)
4. CC1CC(C)C(=O)C(C(CC2CC(=O)NC(=O)C2)OC(=O)CC(=O)c2ccccc2)C1 (centres undefined)
5. OCC1OC(n2ccc3c(NO)ncnc32)C(O)C1O (centres undefined)
6. c1cc(-c2cnc3cccnn23)c2cccnc2c1
7. COc1ccc(NC(=O)c2cccc(N3C(=O)c4cccc([N+](=O)[O-])c4C3=O)c2)cc1

A)
1: 30.2; 2: 90.2; 3: 62.8; 4: 37.2; 5: 53.9; 6: -9.33; 7: -32.3

Give one value of inhibition per listed compound.
1. CCCC(CCC)C(=O)Nc1ccc2c(c1)N(C(=O)CN1CCN(C)CC1)c1ccccc1CC2
2. O=C(O)c1cccc(CSc2nnc(COc3ccccc3)o2)c1

A)
-0.11
15.7

Give one value of inhibition per listed compound.
1. CCN(CC)c1ccc(/C=C/c2cc(-c3ccccc3)c3ccccc3n2)cc1
2. CCCC(=O)Nc1ccc(C(=O)N/N=C/c2ccc([N+](=O)[O-])o2)cc1
3. O=C(Nc1ccc(Cl)cc1)/C(=C/c1cccc(O)c1)c1nc2ccccc2s1
4. Cn1nnnc1Sc1ncnc2scc(-c3ccsc3)c12
5. CCOc1ccc(NC(=O)CN(C)C(=O)c2cn(-c3ccccc3)nc2-c2cccs2)cc1OCC

A)
-11.2
23.3
48.6
18.3
-4.29

Give one value of inhibition per listed compound.
1. CCCCC(=O)NC(c1ccccc1OC)c1ccc2cccnc2c1O (centres undefined)
2. CCN1CCN(C(c2ccc(C(F)(F)F)cc2)c2ccc3cccnc3c2O)CC1 (centres undefined)
3. Nn1cnnc1SCC(=O)N1CCc2ccccc2C1

A)
[-16.1, -15.7, 3.54]
